Origin of the recorded values: ChEMBL document CHEMBL4028905

species on record: Homo sapiens; assay: Selectivity ratio of IC50 for His tagged recombinant BRD4 bromodomain 1 (unknown origin) to IC50 for His tagged recombinant CBP (unknown origin)
Cut-off 400 on Ratio IC50, inclusive. At or above means label 1; below means label 0.

Hi team, for CNC(=O)N1CCOc2ccc(N3CCCc4cc(-c5cnn(C)c5)c(C(F)F)cc43)cc2C1 , is the recorded Ratio IC50 at or above 400?
label 1

Try this molecule next: CCC(=O)N1CCCc2cc(NS(=O)(=O)c3ccc(F)cc3C)ccc21
label 0

Try this molecule next: CNC(=O)c1ccc2nccc(N3CCCc4cc(-c5cnn(C)c5)c(C(F)F)cc43)c2c1
label 1

Try this molecule next: CNC(=O)c1c[nH]c2ccc(N3CCCc4cc(-c5cnn(C)c5)c(C(F)F)cc43)cc12
label 1

Try this molecule next: CCC(=O)N1CCOc2c(cc(-c3ccc(OC)c(OC)c3)cc2OC[C@H]2CCCN(C)C2)C1
label 0

Try this molecule next: Cc1ccc(S(=O)(=O)Nc2ccc3c(c2)CCC(=O)N3C)s1
label 0

Try this molecule next: C[C@@H]1CC(=O)Nc2cccc(-c3ccc4c(c3)c(-c3cnn(C)c3)nn4C)c2N1
label 0

###

organism: Homo sapiens; experiment: Selectivity ratio of IC50 for His tagged recombinant BRD4 bromodomain 1 (unknown origin) to IC50 for His tagged recombinant CBP (unknown origin)
measured-metric: Ratio IC50
Answer with a bare number; do not write a unit.

GET /values?readout=Ratio IC50&item= Cn1cc(-c2cc3c(cc2C(F)F)N(c2cc(N4CCOCC4)c4c(c2)n(C)c(=O)n4C)CCC3)cn1
310

Try this compound next: Cn1cc(-c2cc3c(cc2C(F)F)N(c2ccc4c(c2)n(C)c(=O)n4C)CCC3)cn1
210

###

test: Intrinsic clearance in rat liver microsomes at 1 uM in presence of NADPH by LC-MS/MS analysis; format: ADME, microsome; conditions: read-out: CLH
Quick rule for you: CLint scaled at 1 µM under 20 mL/min/kg gets Satisfied, anything else gets Not satisfied.

State whether 20 mL/min/kg exceeds CLint scaled at 1 µM recorded for CNC(=O)c1c[nH]c2c(C(C)C)nc(N3CCCc4cc(-c5cnn(C)c5)c(C(F)F)cc43)cc12 .
Not satisfied

Try this compound next: Cn1cc(-c2cc3c(cc2C(F)F)N(c2ccc4sc(=O)n(C)c4c2)CCC3)cn1
Not satisfied

Try this compound next: Cn1cc(-c2cc3c(cc2C(F)F)N(c2cc(N4CCOCC4)c4c(c2)n(C)c(=O)n4C)CCC3)cn1
Not satisfied

Try this compound next: Cn1cc(-c2cc3c(cc2C(F)F)N(c2ccc4c(c2)n(C)c(=O)n4C)CCC3)cn1
Not satisfied

Try this compound next: CNC(=O)c1c[nH]c2cnc(N3CCCc4cc(-c5cnn(C)c5)c(C(F)F)cc43)cc12
Satisfied

###

For each record, write down the corresponding CLint scaled at 1 µM.
test: Intrinsic clearance in human liver microsomes at 1 uM in presence of NADPH by LC-MS/MS analysis; format: ADME, microsome; conditions: read-out: CLH
State just the number; it will be interpreted in mL/min/kg.

GET /values?readout=CLint scaled at 1 µM&item= CNC(=O)c1c[nH]c2ccc(N3CCCc4cc(-c5cnn(C)c5)c(C(F)F)cc43)cc12
13

Try this compound next: Cn1cc(-c2cc3c(cc2C(F)F)N(c2ccc4c(c2)n(C)c(=O)n4C)CCC3)cn1
16

Try this compound next: CNC(=O)c1c[nH]c2cnc(N3CCCc4cc(-c5cnn(C)c5)c(C(F)F)cc43)cc12
6.9

Try this compound next: Cn1cc(-c2cc3c(cc2C(F)F)N(c2ccc4sc(=O)n(C)c4c2)CCC3)cn1
17

Try this compound next: CNC(=O)c1c[nH]c2c(C(C)C)nc(N3CCCc4cc(-c5cnn(C)c5)c(C(F)F)cc43)cc12
13

Try this compound next: Cn1cc(-c2cc3c(cc2C(F)F)N(c2cc(N4CCOCC4)c4c(c2)n(C)c(=O)n4C)CCC3)cn1
15
